# credit: paper PMC10397247

List of interaction score values.
- tested on: T1, P5SHb
- T1 chain: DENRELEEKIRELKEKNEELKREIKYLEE
- test details: two-hybrid library CCNG1;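 also: natural log of median RNA to DNA barcode read ratio; higher means stronger binding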

Completed entries (count: 5):
DKIEELKRKIEKLKRENERLERENEWLER [P4SHb] = -0.773
DKIEELKRKNRELKEKNKELKEKIYRLKE [P2SHb] = 0.588
DENRELEEKIRELKEKNEELKREIKYLEE [P5SHb] = -0.373
DEIKELEEEIRELEEKNEELKRKNEWLKR [P3SHb] = 0.636
DEIERLERENEKLERENERLEREIRWLEE [P1SHb] = -0.59

Prompt: Which interaction score value belongs to DKNEELKRENEELERKIERLKEKIRYLKE [P10SHb] ?
Completion: 0.808

Prompt: Field entry: DKNRELKEKIERLKEKIRELKEENRYLEE [P12SHb]
Completion: 0.0253
